From: PubChem BioAssay (NCI)

System: NCI-H522 lung
Experiment: NCI-60 one-dose screen, 48 h
Details: 10 µM unless noted
The panel holds about 83,000 compounds, 20% with a hit somewhere; the sample as a whole holds those more often. Activity calls are given as the source filed them. The calls were made as follows: active = growth percent below 10; inactive = the rest.
Respond using exactly one of the listed classes: active, inactive

| compound | assigned.label |
| --- | --- |
| CC[C@H](C)[C@H](NC(=O)[C@H]1CCCCN1C)C(=O)N(C)[C@H](C(=O)NC12CC(C(=O)N[C@@H](Cc3ccccc3)C[C@H](C)C(=O)OC)(C1)C2)C(C)C | inactive |
| Oc1ccccc1C=NCCN=Cc1ccccc1O.[Fe] | inactive |
| Cc1ccc(P(=O)(O)O)cc1 | inactive |

Query block: Could you please tell me the result logged for CCCN1C(=O)NC(=O)C(CC)(N2C(=O)c3c(F)c(F)c(F)c(F)c3C2=O)C1=O (centres undefined) in this assay?
Result block: active

Query block: # lookup: test call for `C[C@]12CC[C@H]3[C@@H](C[C@@H]4SC(Nc5ccccc5)=N[C@@]45C/C(=N/O)CC[C@]35C)[C@@H]1CCC2=O`
Result block: inactive

Query block: // return assay outcome for `O=C1C=C(N2CC2)c2ccccc2C1=O`
Result block: inactive

Query block: Query: recorded result category for `C[C@]12CC[C@@H](OC(=O)N(CCCl)N=O)C[C@@H]1CC[C@@H]1[C@@H]2CC[C@]2(C)C(=O)CC[C@@H]12` in this test
Result block: inactive

Query block: Please share the test call associated with `CC/C(=C(\c1ccc(OCCN2CCOCC2)cc1)c1ccc(OC(=O)Cc2ccccc2)cc1)c1ccc(Cl)cc1` .
Result block: inactive

Query block: For `c1ccc2c(c1)sc1ccccc12` , which call appears in the assay record?
Result block: inactive
